Let's go through some pIC50 measurements on ROCK2 (Homo sapiens (Human)) together.
pIC50: −log10 of the molar value.

Write down the reported pIC50 of COc1cccc(Cn2c(C)nn(-c3ccc(-c4cn[nH]c4)c(OC)c3)c2=O)c1 , test system: ROCK2 (Homo sapiens (Human)).
> 8.30

What pIC50 appears in the records for this compound with ROCK2 (Homo sapiens (Human))? CCc1cc(-n2ncn(Cc3ccccc3)c2=O)ccc1-c1cn[nH]c1
6.60 to 7.30

Form field: pIC50 recorded for CCc1cc(-n2nc(C)n(Cc3ccc(F)cc3)c2=O)ccc1-c1cn[nH]c1 with ROCK2 (Homo sapiens (Human)) (enter value)
5.70 to 6.60

----------
assayed.target: UniProtKB O75116
readout.label: IC50

1) COc1cccc(Cn2c(C)nn(-c3ccc(-c4ccnc5[nH]ccc45)cc3)c2=O)c1 : 5 to 50 nM
2) COc1cc(F)cc(Cn2nnn(-c3ccc(-c4cn[nH]c4)cc3)c2=O)c1 : 5 to 50 nM
3) COc1cc(-n2nc(C)n(Cc3ccccc3)c2=O)ccc1-c1cn[nH]c1 : < 5 nM
4) COc1cccc(Cn2c(CN3CCOCC3)nn(-c3ccc(-c4cn[nH]c4)cc3)c2=O)c1 : 5 to 50 nM

Now look at this one.
What measured IC50 is associated with O=c1n(-c2ccc(-c3cn[nH]c3)cc2)cnn1Cc1cc(F)ccc1F on UniProtKB O75116?
250 to 2000 nM

----------
pIC50: −log10 of the molar value.
Listed here: compounds with reported pIC50 for UniProtKB O75116.

The following compounds have reported results that may help.
1) COc1cc(-c2cn[nH]c2)ccc1-n1cnn(Cc2cccc(F)c2)c1=O [Example 12] : 6.60 to 7.30
2) COc1cccc(C(C)n2cnn(-c3ccc(-c4cn[nH]c4)cc3)c2=O)c1 (single isomer, unassigned) [Example 47] : 7.30 to 8.30
3) COc1cc(Cn2c(C)nn(-c3ccc(-c4cn[nH]c4)cc3)c2=O)ccc1F [Example 121] : > 8.30
4) COc1cc(Cn2cnn(-c3ccc(-c4cn[nH]c4)cc3)c2=O)ccc1F [Example 50] : > 8.30
5) Cc1nn(-c2ccc(-c3cn[nH]c3)cc2)c(=O)n1CCc1ccccc1 [Example 85] : 6.60 to 7.30
6) COc1cc(F)cc(Cn2c(CN3CCOCC3)nn(-c3ccc(-c4cn[nH]c4)cc3)c2=O)c1 [Example 149] : 7.30 to 8.30

Missing value: pIC50, UniProtKB O75116, entry COc1cc(-n2nc(C)n(Cc3cccc(C#N)c3)c2=O)ccc1-c1cn[nH]c1 [Example 97] . Fill in?
6.60 to 7.30

Find the measured pIC50: item COc1cc(-n2nc(C)n(Cc3c(F)cccc3F)c2=O)ccc1-c1cn[nH]c1 [Example 98] , target or system UniProtKB O75116.
7.30 to 8.30

----------
IC50, ROCK2 (Homo sapiens (Human), UniProt O75116), per-entry values.

Illustrative cases are given below, each with its answer.
1. CCc1cc(-n2nc(C)n(Cc3cccc(OC(F)F)c3)c2=O)ccc1-c1cn[nH]c1 : 50 to 250 nM
2. CCc1cc(-n2nc(C)n(Cc3cccc(OC)c3)c2=O)ccc1-c1cn[nH]c1 : 5 to 50 nM
3. COc1cccc(Cn2ncn(-c3ccc(-c4cn[nH]c4)c(OC)c3)c2=O)c1 : 5 to 50 nM
4. O=c1n(Cc2ccccc2)cnn1-c1ccc(-c2cn[nH]c2)cc1 : 5 to 50 nM
5. COc1ccc(F)cc1Cn1c(C)nn(-c2ccc(-c3cn[nH]c3)cc2)c1=O : 50 to 250 nM

I'm curious: which IC50 was measured for CCc1cc(-n2ncn(Cc3ccc(F)cc3)c2=O)ccc1-c1cn[nH]c1 tested on ROCK2 (Homo sapiens (Human), UniProt O75116)?
250 to 2000 nM

State its IC50 on ROCK2 (Homo sapiens (Human), UniProt O75116): CCc1cc(-n2nc(C)n(Cc3c(F)cccc3F)c2=O)ccc1-c1cn[nH]c1
Sequence (O75116 whole entry, species assumed): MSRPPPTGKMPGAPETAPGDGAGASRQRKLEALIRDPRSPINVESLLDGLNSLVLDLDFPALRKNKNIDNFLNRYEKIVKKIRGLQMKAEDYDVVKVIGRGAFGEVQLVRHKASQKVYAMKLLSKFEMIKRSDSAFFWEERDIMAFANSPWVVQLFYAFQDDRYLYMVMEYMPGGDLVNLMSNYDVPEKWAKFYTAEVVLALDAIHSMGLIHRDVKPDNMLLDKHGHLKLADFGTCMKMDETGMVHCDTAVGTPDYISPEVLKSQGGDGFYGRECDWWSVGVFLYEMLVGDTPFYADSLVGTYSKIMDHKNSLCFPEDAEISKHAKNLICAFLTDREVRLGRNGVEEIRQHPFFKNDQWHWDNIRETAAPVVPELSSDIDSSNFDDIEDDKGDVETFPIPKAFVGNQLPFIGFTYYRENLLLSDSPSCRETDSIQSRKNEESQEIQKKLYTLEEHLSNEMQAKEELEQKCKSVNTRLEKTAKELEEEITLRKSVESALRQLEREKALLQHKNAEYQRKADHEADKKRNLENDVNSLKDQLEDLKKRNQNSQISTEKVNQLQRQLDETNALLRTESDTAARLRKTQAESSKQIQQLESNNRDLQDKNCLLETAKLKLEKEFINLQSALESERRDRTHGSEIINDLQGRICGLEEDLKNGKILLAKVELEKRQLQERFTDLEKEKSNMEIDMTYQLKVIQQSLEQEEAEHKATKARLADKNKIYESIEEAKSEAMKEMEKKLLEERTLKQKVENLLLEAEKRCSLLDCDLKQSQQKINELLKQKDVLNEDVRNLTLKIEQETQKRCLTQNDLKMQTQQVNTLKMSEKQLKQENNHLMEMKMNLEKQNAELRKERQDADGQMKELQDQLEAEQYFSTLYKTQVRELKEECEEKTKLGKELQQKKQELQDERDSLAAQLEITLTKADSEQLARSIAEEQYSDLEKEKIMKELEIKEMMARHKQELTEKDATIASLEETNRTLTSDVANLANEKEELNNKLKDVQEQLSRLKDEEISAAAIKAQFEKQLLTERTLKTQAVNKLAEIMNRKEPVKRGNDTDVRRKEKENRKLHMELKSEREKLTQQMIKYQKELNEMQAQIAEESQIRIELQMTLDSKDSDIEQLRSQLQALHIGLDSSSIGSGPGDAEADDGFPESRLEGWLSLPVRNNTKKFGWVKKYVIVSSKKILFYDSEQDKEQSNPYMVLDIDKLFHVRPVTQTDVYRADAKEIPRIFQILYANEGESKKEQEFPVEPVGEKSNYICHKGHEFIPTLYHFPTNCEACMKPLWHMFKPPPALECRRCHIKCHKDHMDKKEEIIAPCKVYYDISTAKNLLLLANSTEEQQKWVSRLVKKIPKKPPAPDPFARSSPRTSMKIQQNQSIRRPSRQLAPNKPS
250 to 2000 nM

Recall the recorded IC50 for Cc1nn(-c2ccc(-c3cn[nH]c3)cc2)c(=O)n1Cc1cccc(F)c1 with ROCK2 (Homo sapiens (Human), UniProt O75116) and state it.
5 to 50 nM
